Parameter pIC50: see the listing below.
# target_entity: BTK-WT (Homo sapiens)
# Construct: purified from insect cells as a full-length construct containing an N-terminal 6X-His tag; His6 (N); made in house; host or cells: insect cells (baculovirus Sf21 in Method B)
# Sequence (Q06187 whole entry): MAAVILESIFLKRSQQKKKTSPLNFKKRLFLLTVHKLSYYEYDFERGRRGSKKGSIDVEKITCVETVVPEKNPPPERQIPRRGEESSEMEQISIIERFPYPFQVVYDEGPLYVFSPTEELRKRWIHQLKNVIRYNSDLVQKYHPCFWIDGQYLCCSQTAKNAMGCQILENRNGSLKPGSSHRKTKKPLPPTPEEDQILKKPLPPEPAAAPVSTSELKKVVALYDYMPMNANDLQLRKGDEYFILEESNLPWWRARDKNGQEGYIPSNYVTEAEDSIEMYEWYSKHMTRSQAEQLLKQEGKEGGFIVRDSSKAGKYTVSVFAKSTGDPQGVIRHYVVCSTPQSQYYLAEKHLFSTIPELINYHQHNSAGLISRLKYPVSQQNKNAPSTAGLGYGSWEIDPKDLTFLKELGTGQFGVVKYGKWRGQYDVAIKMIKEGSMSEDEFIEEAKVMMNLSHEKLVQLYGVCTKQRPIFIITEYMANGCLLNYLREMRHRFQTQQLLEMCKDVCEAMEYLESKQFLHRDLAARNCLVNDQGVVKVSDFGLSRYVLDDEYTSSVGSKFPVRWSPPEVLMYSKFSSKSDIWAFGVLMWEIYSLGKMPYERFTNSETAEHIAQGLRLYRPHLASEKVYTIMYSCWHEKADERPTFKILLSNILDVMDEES
# test_name: Btk in vitro inhibitory activity (one of Method A TR-FRET, Method B electrophoretic mobility shift, Method C radiometric filter binding)
# Assay type: biochemical
# recorded_conditions: D-compounds panel data; read-out: IC50 BTK-WT
pIC50: −log10 of the molar value.

Some molecules with recorded pIC50:
# molecule, pIC50
measured = [
    ("C[C@@H]1[C@H](n2ccc3cc(C4CC4)ccc3c2=O)CCCN1c1cnc(C(N)=O)c(Nc2ccc(N3CCN(C)CC3)cc2)n1", "≥ 8.00"),
    ("C[C@@H]1[C@H](NC(=O)c2ccc(C3CC3)cc2)CCCN1c1cnc(C(N)=O)c(Nc2cnn(C3CCOCC3)c2)n1", "≥ 8.00"),
    ("Cn1cc(Nc2nc(N3CCC[C@@H](NC(=O)c4ccc(C(C)(C)O)cc4)C3)nnc2C(N)=O)cn1", "≥ 8.00"),
    ("C[C@@H]1[C@H](NC(=O)c2ccc(C3CC3)cc2)CCCN1c1cnc(C(N)=O)c(Nc2ccc(OC(F)(F)F)cc2)n1", "6.00 to 7.00"),
    ("C[C@@H]1[C@H](NC(=O)c2ccc(C3(C(F)(F)F)CC3)cc2)CCCN1c1cnc(C(N)=O)c(Nc2cnn(C)c2)n1", "≥ 8.00"),
    ("CN(C)C(=O)N[C@H]1CCCN(c2cnc(C(N)=O)c(Nc3ccc(C4(C)CCN(C5CCCC5)CC4)cc3)n2)[C@H]1CO", "6.00 to 7.00"),
    ("CN1CCN(c2ccc(Nc3nc(N4CCC[C@@H](n5ccc6cc(C7CC7)ccc6c5=O)C4)cnc3C(N)=O)nc2)CC1", "6.00 to 7.00"),
    ("Cc1cc(Nc2nc(N3CCC[C@H](NC(=O)N(C)C)[C@@H]3CO)cnc2C(N)=O)sn1", "5.00 to 6.00"),
]

QUERY: Quote BTK-WT (Homo sapiens) pIC50 for entry CN1CCN([C@@H]2CCCN(c3cnc(C(N)=O)c(Nc4cnn(C)c4)n3)C2)C1=O .
RESULT: 7.00 to 8.00

QUERY: Consider the molecule C[C@@H]1[C@H](NC(=O)c2ccc(C(C)(C)N(C)C)cc2)CCCN1c1cnc(C(N)=O)c(Nc2cnn(C)c2)n1 tested on BTK-WT (Homo sapiens); state its pIC50.
RESULT: ≥ 8.00

QUERY: Provide BTK-WT (Homo sapiens) pIC50 reading for C/C=C/c1ccc(C(=O)N[C@@H]2CCCN(c3cnc(C(N)=O)c(Nc4cc(C)ns4)c3)[C@@H]2C)c(F)c1 .
RESULT: 7.00 to 8.00

QUERY: Look up and report pIC50, with BTK-WT (Homo sapiens) as system, for C[C@@H]1[C@H](NC(=O)c2cc(C3CC3)n(C)n2)CCCN1c1cnc(C(N)=O)c(Nc2cnn(C)c2)n1
RESULT: ≥ 8.00

QUERY: Report its pIC50 with BTK-WT (Homo sapiens) as the test system: C[C@@H]1[C@H](NC(=O)c2ccc(C3CC3)cc2)CCCN1c1cnc(C(N)=O)c(Nc2ccc(OC3CCN(CC(F)(F)F)CC3)cc2)n1
RESULT: ≥ 8.00

QUERY: GET pIC50 where system = BTK-WT (Homo sapiens) and item = C[C@@H]1[C@H](NC(=O)c2ccc(C3CC3)cc2)CCCN1c1cnc(C(N)=O)c(Nc2cnn(C(F)F)c2)n1
RESULT: ≥ 8.00
